- Protocol notes: NCI Yeast Anticancer Drug Screen. Data for the mec2-1 strain (AID 157)
- Measurement setup: S. cerevisiae mec2-1 strain, at 50.0 µM, active compounds read high
About 79,000 compounds went through this panel and 15% of them were active in at least one assay; those are over-represented in the sample as a whole.
Property: growth inhibition; scope: individual compounds
Property measured: growth inhibition (%)

compound="CC(=O)OCC1OC(n2c(O)c(N=NC(N)=S)c3ccc([N+](=O)[O-])cc32)C(OC(C)=O)C1OC(C)=O (centres undefined)" property_measured="growth inhibition" reported_measurement=34.6
compound="CC(CC(C)[C@H]1CCC2[C@H]3C(CC[C@@]21C)[C@@]1(C)CCC(O)C[C@H]1C[C@@H]3O)C(=O)O (some centres undefined)" property_measured="growth inhibition" reported_measurement=97.5
compound="Clc1ccc(-c2csc(NCC3CCCO3)n2)cc1 (centres undefined)" property_measured="growth inhibition" reported_measurement=39
compound=C(=C/c1cnnc2ccccc12)/c1ccccn1 property_measured="growth inhibition" reported_measurement=6.2
compound=COc1ccc(CNc2nc3cc(C(F)(F)F)ccc3nc2C)cc1OC property_measured="growth inhibition" reported_measurement=91.3
compound=Nc1c(Cl)nc(C(F)(F)F)nc1NCc1ccccc1 property_measured="growth inhibition" reported_measurement=8.25
compound=CCCCCCCCC1(OCCCS(=O)(=O)O)COc2ccccc2OCCOCCOc2ccccc2OC1 property_measured="growth inhibition" reported_measurement=87
compound=COc1ccc2[nH]cc(C(=O)O)c2c1 property_measured="growth inhibition" reported_measurement=2.6
compound="CCN(CC)CC(O)CNc1cc(C)nc(/N=C(\\N)Nc2ccc(Cl)c(Cl)c2)n1 (centres undefined)" property_measured="growth inhibition" reported_measurement=57.3
compound="O=C(O)C1C(Br)(c2ccccc2)C1(Br)c1ccccc1 (centres undefined)" property_measured="growth inhibition" reported_measurement=17.7
compound=O=P1(N2CCCCC2)N(Cc2ccc(Cl)cc2)CCCN1Cc1ccc(Cl)cc1 property_measured="growth inhibition" reported_measurement=51.5
compound=O=C(O)c1ccccc1C(c1ccccc1)c1ccccc1 property_measured="growth inhibition" reported_measurement=65.2
compound=CCOC(=O)Cc1nc2ccccc2s1 property_measured="growth inhibition" reported_measurement=99.6
compound=CC#CC#C/C=C1/C=CC(=O)O1 property_measured="growth inhibition" reported_measurement=33.5
compound=O=C(O)CC1c2ccccc2-c2ccccc21 property_measured="growth inhibition" reported_measurement=64.5
compound="O=C1CC(c2ccccc2Cl)C(c2ccccc2Cl)C1 (centres undefined)" property_measured="growth inhibition" reported_measurement=96
compound=S=C(N/N=C/c1ccccn1)N1CC2CCC(CC2)C1 property_measured="growth inhibition" reported_measurement=93.5
compound=O=C(/C=C/C(=N\Nc1ccccc1)c1ccccc1)c1ccccc1 property_measured="growth inhibition" reported_measurement=13.9
compound=CS(=O)(=O)OCCN(CCOS(C)(=O)=O)c1ccc(C=Nc2ccc(-c3csc(-c4ccc(Br)cc4)n3)cc2)cc1 property_measured="growth inhibition" reported_measurement=97.2
compound=COc1ccc(N=Nc2ccc(O)cc2)cc1 property_measured="growth inhibition" reported_measurement=96
compound=O=[N+]([O-])/C(=C\c1cccs1)c1ccccc1 property_measured="growth inhibition" reported_measurement=99.7
compound=Cc1ccccc1-n1c(N)c(-c2nc3ccccc3[nH]2)sc1=S property_measured="growth inhibition" reported_measurement=70.7
compound="Cc1ccccc1NC(=O)C(=O)C(C#N)c1c(Cl)cccc1Cl (centres undefined)" property_measured="growth inhibition" reported_measurement=17.1
compound=CC(C)c1ccc(CN(CCO)Cc2ccc(C(C)C)cc2)cc1 property_measured="growth inhibition" reported_measurement=75.6

---

- Protocol notes: NCI Yeast Anticancer Drug Screen. Data for the bub3 strain (AID 167)
- Measurement setup: S. cerevisiae bub3 mutant strain, at 50.0 µM (retest, dose inferred, filed as 5.0)
Compounds without any hit were thinned out: in the full panel of roughly 79,000, 15% have a hit. Activity calls are given as the source filed them. No stated cut-off is given here; in the data, active means growth inhibition above about 70%; inactive means the rest.
Classes used: True for active, False for inactive

compound=CCOC(=O)/C(=C/c1ccccc1Br)P(=O)(OCC)OCC class_assignment=True
compound=c1ccc(CC(Cc2ccccc2)c2cccnc2)cc1 class_assignment=True
compound="COC1OC(CO)C(O)C(OC(=O)c2ccc([N+](=O)[O-])cc2)C1OS(=O)(=O)c1ccc(C)cc1 (stereo unspecified)" class_assignment=False
compound=Cc1ccccc1N=Nc1sc(N)nc1-c1ccccc1 class_assignment=True
compound=N=c1ccc2c(c1)[nH]c1c3ccccc3[nH]c3cccc2c31 class_assignment=True
compound="Cc1ccc(C2(C)CC/C(=N/O)c3cc(C)c(C)cc32)cc1C (stereo unspecified)" class_assignment=True

---

- Protocol notes: NCI Yeast Anticancer Drug Screen. Data for the mlh1 rad18 strain (AID 175)
- Measurement setup: S. cerevisiae mlh1 rad18 strain growth inhibition; at 50.0 µM; active compounds read high
The panel holds about 79,000 compounds, 15% with a hit somewhere; the sample as a whole holds those more often.
Property: growth inhibition; scope: individual compounds
Property measured: growth inhibition (%)

compound=CN1CCN(CCCCN2c3ccccc3Sc3ccc(C(=O)c4ccccc4)cc32)CC1 property_measured="growth inhibition" reported_measurement=60.2
compound="COc1cc2c[n+](C)c3c4ccccc4ccc3c2cc1OC (tested in a mixture with another compound)" property_measured="growth inhibition" reported_measurement=-18.6
compound=O=c1[nH]c(C(F)(F)F)c(F)c(=O)[nH]1 property_measured="growth inhibition" reported_measurement=95
compound=O=C1C2=C(CCCC2)C(=O)c2ccccc21 property_measured="growth inhibition" reported_measurement=68.5
compound=O=c1c(Cl)cc2nc3ccccc3sc-2c1Cl property_measured="growth inhibition" reported_measurement=83
compound=C=CCNC(=S)N/N=C/c1nccc(-c2ccccc2)c1C property_measured="growth inhibition" reported_measurement=78.5
compound=Oc1[nH]c2ccccc2c1N=NC(=S)N1CCCCCC1 property_measured="growth inhibition" reported_measurement=79.8
compound=Cc1cc(C(O)(c2cc(C)c(O)c(C(=O)O)c2)c2cc(C)c(O)c(C(=O)O)c2)cc(C(=O)O)c1O property_measured="growth inhibition" reported_measurement=10.3
compound=CCc1ccc(C(=O)O)c2ccccc12 property_measured="growth inhibition" reported_measurement=51.6
compound="NNC(=O)N/N=C(\\CC1(O)C(=O)Nc2c(Cl)ccc(Cl)c21)c1ccc(F)cc1 (stereo unspecified)" property_measured="growth inhibition" reported_measurement=50.3
compound=COc1cc(OC)c(OC)cc1/C=C\c1nccc2ccccc12 property_measured="growth inhibition" reported_measurement=94.2

---

- Protocol notes: NCI Yeast Anticancer Drug Screen. Data for the sgs1 mgt1 strain (AID 161);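 further: 0% = growth of cultures given vehicle only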
- Measurement setup: S. cerevisiae sgs1 mgt1 strain, at 5.0 µM (retest, dose inferred, filed as 0.5), active compounds read high
This is part of a sample that, as a whole, favours compounds with a hit. Of some 79,000 tested, about 15% had one in any assay.
Property measured: growth inhibition (%)

compound=CSc1cc2c(cc1N)Cc1ccccc1-2 reported_measurement=3
compound=Nc1ccc(/C=C2/c3ccccc3-c3nc4ccccc4cc32)cc1 reported_measurement=-4
compound=COc1cccc(CCCNC(=O)Cc2ccccc2CO)c1 reported_measurement=9
compound=O=C(Nc1cc(Cl)ccc1Cl)Nc1ccc(Cl)cc1C(=O)c1ccccc1 reported_measurement=27
compound="CC(C)CCCC(O)CNCc1ccccc1 (stereo not drawn)" reported_measurement=13
compound=CCCCCCCCCCCCOC(=O)C[N+]1(C)CCCCC1 reported_measurement=99
compound=CCC[CH2][Sn]([CH2]CCC)([O]C(=O)c1cc(F)cc(F)c1)[O][Sn]([CH2]CCC)([CH2]CCC)[O]C(=O)c1cc(F)cc(F)c1 reported_measurement=40
compound="COC(O)C12OC3CO[Si](C(C)C)(C(C)C)O[Si](C(C)C)(C(C)C)OC3C1Oc1nc(=O)ccn12 (stereo not drawn)" reported_measurement=-25
compound="CC(NNC(=S)N1CCCC1)c1cccnn1 (stereo not drawn)" reported_measurement=97
compound=COc1ccc(-c2c3c(cc4cc5c(cc24)OCO5)C(=O)OC3)cc1OC reported_measurement=57
compound=CCCOCCC#N reported_measurement=-6
compound=Cc1cc(NC(=S)SCc2ccc(Cl)cc2)ccc1F reported_measurement=2
compound="Cc1ccc(S(=O)(=O)OC(COC(=O)c2ccc([N+](=O)[O-])cc2)C2OC(C)(C)OC2C(SCc2ccccc2)SCc2ccccc2)cc1 (stereo not drawn)" reported_measurement=-1
compound=c1cc(Nc2ccc(Nc3ccc(CN4CCCCC4)cc3)cc2)ccc1CN1CCCCC1 reported_measurement=66
compound=COc1ccc(/C=N/NC(=O)c2ccco2)cc1OC reported_measurement=-3
compound=c1ccc2c(c1)oc1cc3ccncc3cc12 reported_measurement=3
compound=O=C(O)CCC(=O)NCCNC(=O)CC(=O)O reported_measurement=-57
compound=CC(=O)Nc1ccc(N=Cc2cc(Cl)cc(Cl)c2O)cc1 reported_measurement=97
compound=CCOC(=O)/C(=C\c1ccccc1)C(=O)CCN1CCOCC1 reported_measurement=12
compound=Cc1c(-c2ccccc2)ccnc1/C=N/NC(=S)NCCc1ccccc1 reported_measurement=52
compound=O=[N+]([O-])c1cccc(S(=O)(=O)Nc2cccc3ccccc23)c1 reported_measurement=2
compound=Clc1cc2ccccc2c2ccccc12 reported_measurement=-3
compound=O=C1c2ccccc2C(=O)c2c(/C=C\N3CCCCC3)ccnc21 reported_measurement=40
